Recorded values, source patent US20240390284A1.

- procedure-summary: LNP size (average radius), Wyatt Plate Reader III
- Assay type: physicochemical
- test-settings: LNP of ionizable lipid:DSPC:cholesterol:DMG-PEG 45:10:44:1 with Cas9 mRNA and sgRNA, 0.087 mg/ml each; rep2
- Experimental: Lipid nanoparticles (LNPs) were generated by rapid mixing. A mixture containing ionizable lipid, DSPC, cholesterol, and DMG-PEG at a molar ratio of 45:10:44:1, respectively, in ethanol was mixed with an aqueous sample containing Cas9 mRNA and synthetic sgRNA in 100 mM sodium acetate. Molar fractions were maintained for each formulation while varying the ionizable lipid. […] LNP size was determined using a Wyatt Plate Reader III with default settings.
endpoint-name: average Radius (nm) rep2

>  <molecule>
CCCCCCCC/C=C\CCCCCCCC1OC(CCN(C)C)OC1CCCCCCC/C=C\CCCCCCCC (stereo not shown)

>  <unit-abbrev>
nm

>  <reading>
91.525

$$$$
>  <molecule>
CCCCCCCC/C=C/CCCCCCCC1OC(CCN(C)C)OC1CCCCCCCCCCCCCCCCC (stereo not shown)

>  <unit-abbrev>
nm

>  <reading>
124.85

$$$$
>  <molecule>
CCCCC/C=C\C/C=C\CCCC1OC(CCN(C)C)OC1CCC/C=C\C/C=C\CCCCC (stereo not shown)

>  <unit-abbrev>
nm

>  <reading>
90.275

$$$$
>  <molecule>
CCCCC/C=C\C/C=C\CCCCCCCC1OC(CCCN(C)C)OC1CCCCCCC/C=C\C/C=C\CCCCC (stereo not shown)

>  <unit-abbrev>
nm

>  <reading>
109.475

$$$$
>  <molecule>
CCCCCC=CCC=CCCCCCCCC1OC(CCN(C)C)OC1CCCCCCCCCCCCCCCCC (stereo in doubt)

>  <unit-abbrev>
nm

>  <reading>
129.475

$$$$

P = CCCCC/C=C/C/C=C/CCCCCCCC1OC(CCN(C)C)OC1CCCCCCC/C=C/C/C=C/CCCCC (stereo not shown)
Q = CCCCC/C=C\C/C=C\CCCCCCCC1OC(CCN(C)C)OC1CCCCCCCCCCCCCCCCC (stereo not shown)
Given the listed records, identify the one among P and Q with higher average Radius (nm) rep2. Use the label to indicate which entry you chose. Q
(Q: 150.55 nm, P: 101.525 nm)

I = CCCCCCCC/C=C/CCCCCCCC1OC(CCN(C)C)OC1CCCCCCC/C=C/CCCCCCCC (stereo not shown)
II = CCCCC/C=C\C/C=C\CCCCCC1OC(CCN(C)C)OC1CCCCC/C=C\C/C=C\CCCCC (stereo not shown)
Given the listed records, identify the one among I and II with higher average Radius (nm) rep2. Use the label to indicate which entry you chose. I
(I: 136.875 nm, II: 91.175 nm)
